Please provide measured TGI for the entries that follow.
test system: HOP-92 NSCLC; assay: NCI tumour cell line growth inhibition, 48 h

Examples with answers:
molecule	TGI
CCOC(=O)C(Cc1ccc([N+](=O)[O-])cc1)NC(=O)CC1c2ccccc2-c2ccccc21 (stereo not drawn)	56.5 µM
CCCCCCCCCCCc1noc2c1C(=O)C(O)CC2 (stereo not drawn)	42.8 µM
Cc1cc2cc3c(Cl)c(CCCl)c(C)nc3cc2c(Cl)c1CCCl	35.4 µM

Hi team, please reply with TGI for each item in this list.
1. CN(C)C(=O)Nc1c([N+](=O)[O-])cc(C(F)(F)F)cc1[N+](=O)[O-]
2. CCOc1cc(C(c2c(O)c3ccccc3oc2=O)c2c(O)c3ccccc3oc2=O)ccc1OC

1. > 100 µM
2. 32.8 µM

Hi team, please reply with TGI for each item in this list.
1. CC[N+](CC)(CC)Cc1cc2ccccc2n1C(=O)OC
2. CN(CC(=O)O)S(=O)(=O)c1ccc(F)cc1
3. O=c1c2c3c(sc2nc(CN2CCNCC2)n1-c1ccccc1)CCCC3
4. [Co+2].[O-]c1ccccc1C=NCc1ccccc1.[O-]c1ccccc1C=NCc1ccccc1
5. COc1ccc2c(c1)CCC1C2CCC2(C)C3=CC(O)CCC3CC12 (stereo not drawn)
6. S=c1[nH]n2c(Cc3ccccc3)nnc2s1
7. COc1cc(/C=C/c2ccc(/C=C/c3cc(OC)c(OC)c(OC)c3)cc2)cc(OC)c1OC
8. Cc1ccc2nc(-n3c(/C=C/c4ccccc4O)nc4ccccc4c3=O)sc2c1

> 100 µM
> 100 µM
> 100 µM
92.4 µM
45.2 µM
> 100 µM
34.7 µM
> 100 µM
